All values here come from PubChem BioAssay (NCI).

Test system: SF-539 CNS
Assay: NCI-60 one-dose screen, 48 h (100 = growth as untreated, 0 = no growth, -100 = all killed)
Conditions: 10 µM
Compounds without any hit were thinned out: in the full panel of roughly 83,000, 20% have a hit. Active and inactive are the calls of the source. How the source made its calls: active means growth percent below 10; inactive means the rest.
measurement.name: growth

Requested read-out: growth. Entry: `CCS(=O)(=O)CCCl` 104% (inactive)

Also `COC(=O)c1ccccc1Br` ? 102% (inactive)

Also `Cc1cc(N)c(S(=O)(=O)O)c(N)c1` ? 96.8% (inactive)

Also `CCCCCCCCCCCCCC(=O)Oc1ccc[nH]c1=O` ? 99% (inactive)

Also COc1ccc(C2OC(N)=C(O)C2=O)cc1OC (stereo unspecified) ? 90.9% (inactive)

Also `COc1cc(OC)c2ccc(=O)oc2c1` ? 106% (inactive)

====

Tested on: NCI-H226 lung
Assay: NCI-60 one-dose screen, 48 h (100 = growth as untreated, 0 = no growth, -100 = all killed)
Conditions: 10 µM
The panel holds about 83,000 compounds, 20% with a hit somewhere; the sample as a whole holds those more often.
measurement.name: growth (%)
# number only, unit % dropped from output

Worked examples, 3 molecules total:
- entry.smiles: "CC(=O)C1CCCCC1"
  growth, %: 89.9
- entry.smiles: "CC(=O)c1ccc(C(C)(C)C)cc1"
  growth, %: 98.4
- entry.smiles: "Cc1cc(NC(=O)CSCC(=O)O)no1"
  growth, %: 110

Moving on to the next molecule.
Requested read-out: growth. Entry: `Oc1ccc(Cc2ccccc2)c2cccnc12` 75.7

====

Each entry below lists one item and its recorded growth value.
Test system: ACHN renal
Assay: NCI-60 one-dose screen, 48 h (100 = growth as untreated, 0 = no growth, -100 = all killed)
Details: 10 µM
Compounds without any hit were thinned out: in the full panel of roughly 83,000, 20% have a hit.
# number only, unit % dropped from output

- entry.smiles: "O=[N+]([O-])c1ccc(Cl)c(S(=O)(=O)O)c1"
  unit.name: "%"
  growth: 101

Requested read-out: growth. Entry: `c1c(-c2cc(C3CC3)[nH]n2)n[nH]c1C1CC1` 99.3

Also `CCCCNC1(C#N)CCN(Cc2ccccc2)CC1` ? 106

Also `CCN1C(=O)/C(=C/C=C/N(C)c2ccccc2)SC1=S` ? 75.7

Also `O=C(CCl)N1CCN(C/C=C/c2ccccc2)CC1` ? 95.8

Also `Cc1cc(C(C)(C)C)cc(C)c1Br` ? 104

Also `O=C(O)CCCCNC(=O)c1ccccc1` ? 115

====

Each entry below lists one item and its recorded growth value.
Tested on: DU-145 prostate
Experiment: NCI-60 one-dose screen, 48 h (100 = growth as untreated, 0 = no growth, -100 = all killed)
Conditions: 10 µM
Protocol: Cells are grown in 96 well plates and exposed to the test compound for 48 hours. Compounds are tested at a single concentration, which is 10^-5 M for most compounds. The reported endpoint is percent growth (GI% or GIPRCNT), where numbers from 0 - 100% represent growth inhibition, and numbers from -100% - 0 represent cell death. For example, a value of 40 represents 60% growth inhibition. A value of 0 means no net growth occurred over the course of the experiment. […]
Compounds without any hit were thinned out: in the full panel of roughly 83,000, 20% have a hit.
# number only, unit % dropped from output

- compound: "CC(=O)c1c[nH]c2ccccc12"
  test.value: 124
- compound: "O=C(O)CCCc1ccccc1"
  test.value: 119
- compound: "Cc1ccc(S(=O)(=O)O)c(C)c1"
  test.value: 108
- compound: "COc1ccc(-c2cc(-c3cc(-c4ccc(OC)cc4)nc(N)n3)nc(N)n2)cc1"
  test.value: 102
- compound: "COC(=O)c1ccc(C(C)C)cc1"
  test.value: 105

Requested read-out: growth. Entry: `C=CCCCCCCCCCOC(C)=O` 102

Also `CC(C)OC(=O)c1cc(NC(=S)OC(C)C)ccc1Cl` ? 83.8
